Ref: paper PMC5772984

Test system: UGA1 N-luciferase expressing C. parvum
Experiment: Nluc expressing C. parvum in vitro growth inhibition in infected HCT-8 cells
Type: cell-based
Conditions: Cryptosporidium parvum
parameter_measured: pEC50
Value format note: pEC50 is -log10 of concentration (mol/L); just state the number.

Query: Entry CC(=O)Oc1ccccc1C(=O)Nc1ncc([N+](=O)[O-])s1 [Nitazoxanide, nitazoxanide] has what pEC50?
Result: 5.51
